Assign pKd to each entry below.
Target: T1, extracellular domain of rhesus monkey BCMA (rhesus monkey, UniProt F7FFA0 1-53)
T1 construct: extracellular domain; also called RhBCMA
T1 sequence (F7FFA0 entry or part of it): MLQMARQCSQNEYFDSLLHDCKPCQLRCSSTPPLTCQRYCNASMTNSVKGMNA
Experiment: Octet BLI; Fab 200 nM
In textbook form, pKd equals minus log to base ten of the concentration in mol/L.

Lab note: measured pKd of AB200-R1H32-R2Vk18 (Fab, V domains shown) VH: QVQLVQSGAEVKKPGSSVKVSCKASGGTFSNYWMHWVRQAPGQGLEWMGATYRSHSDTYYNQKFKSRVTITADKSTSTAYMELSSLRSEDTAVYYCARGAIYHGYDVIDNWGQGTLVTVSS VL: DIQMTQSPSSLSASVGDRVTITCRASQSISSYINWYQQKPGKAPKLLIYAASSLQSGVPSRFSGSGSGTDFTLTISSLQPEDFATYYCQQFRKIPWTFGQGTKLEIKR was 8.20

Lab note: measured pKd of AB200-R1H32-R2Vk45 (Fab, V domains shown) VH: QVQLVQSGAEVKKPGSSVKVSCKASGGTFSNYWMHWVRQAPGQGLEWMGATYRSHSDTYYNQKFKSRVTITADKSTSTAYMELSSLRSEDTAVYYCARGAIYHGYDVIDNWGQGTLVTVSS VL: DIQMTQSPSSLSASVGDRVTITCRASQSISSYINWYQQKPGKAPKLLIYATSNLQIGVPSRFSGSGSGTDFTLTISSLQPEDFATYYCQQYRRIPWTFGQGTKLEIKR was 8.48

Lab note: measured pKd of AB200-R1H32-R2Vk47 (Fab, V domains shown) VH: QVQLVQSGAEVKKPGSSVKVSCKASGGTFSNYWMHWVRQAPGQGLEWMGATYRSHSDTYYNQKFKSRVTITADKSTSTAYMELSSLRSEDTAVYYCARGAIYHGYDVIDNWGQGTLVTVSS VL: DIQMTQSPSSLSASVGDRVTITCRASQSISSYINWYQQKPGKAPKLLIYATSNLQIGVPSRFSGSGSGTDFTLTISSLQPEDFATYYCQQYRKIPWSFGQGTKLEIKR was 8.41

Lab note: measured pKd of AB200-R1H32-R2Vk27 (Fab, V domains shown) VH: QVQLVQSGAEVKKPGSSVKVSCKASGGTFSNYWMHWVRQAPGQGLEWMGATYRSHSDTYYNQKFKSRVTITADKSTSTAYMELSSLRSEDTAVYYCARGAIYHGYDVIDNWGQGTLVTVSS VL: DIQMTQSPSSLSASVGDRVTITCRASQSISSYLNWYQQKPGKAPKLLIYATSNIQSGVPSRFSGSGSGTDFTLTISSLQPEDFATYYCQQYRKIPWSFGQGTKLEIKR was 8.16

Lab note: measured pKd of AB200-R1H32-R2Vk26 (Fab, V domains shown) VH: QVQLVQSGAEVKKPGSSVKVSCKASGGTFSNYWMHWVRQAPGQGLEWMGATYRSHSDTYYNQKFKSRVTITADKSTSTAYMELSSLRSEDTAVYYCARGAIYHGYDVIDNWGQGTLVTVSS VL: DIQMTQSPSSLSASVGDRVTITCRASQSISSYLNWYQQKPGKAPKLLIYATSNIQSGVPSRFSGSGSGTDFTLTISSLQPEDFATYYCQQFRRLPWTFGQGTKLEIKR was 8.41

Lab note: measured pKd of AB200-R1H32-R2Vk12 (Fab, V domains shown) VH: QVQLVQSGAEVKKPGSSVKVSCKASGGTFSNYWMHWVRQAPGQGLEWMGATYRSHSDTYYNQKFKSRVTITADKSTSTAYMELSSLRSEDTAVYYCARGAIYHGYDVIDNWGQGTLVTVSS VL: DIQMTQSPSSLSASVGDRVTITCRASQSISSYLNWYQQKPGKAPKLLIYAASSLQSGVPSRFSGSGSGTDFTLTISSLQPEDFATYYCQQYRKIPWSFGQGTKLEIKR was 8.04

Lab note: measured pKd of AB200-R1H32-R2Vk30 (Fab, V domains shown) VH: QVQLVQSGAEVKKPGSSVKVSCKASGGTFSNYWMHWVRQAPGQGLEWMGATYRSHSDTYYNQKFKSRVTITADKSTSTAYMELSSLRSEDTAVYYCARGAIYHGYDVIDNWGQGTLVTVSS VL: DIQMTQSPSSLSASVGDRVTITCRASQSISSYLNWYQQKPGKAPKLLIYATSNLQIGVPSRFSGSGSGTDFTLTISSLQPEDFATYYCQQYRRIPWTFGQGTKLEIKR was 8.41

Lab note: measured pKd of AB200-R1H32-R2Vk19 (Fab, V domains shown) VH: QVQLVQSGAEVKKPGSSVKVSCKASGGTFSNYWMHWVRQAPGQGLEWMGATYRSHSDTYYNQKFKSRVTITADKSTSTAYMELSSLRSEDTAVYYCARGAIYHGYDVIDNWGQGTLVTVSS VL: DIQMTQSPSSLSASVGDRVTITCRASQSISSYLNWYQQKPGKAPKLLIYATSNLQSGVPSRFSGSGSGTDFTLTISSLQPEDFATYYCQQYRRLPWSFGQGTKLEIKR was 8.34

Lab note: measured pKd of AB200-R1H32-R2Vk25 (Fab, V domains shown) VH: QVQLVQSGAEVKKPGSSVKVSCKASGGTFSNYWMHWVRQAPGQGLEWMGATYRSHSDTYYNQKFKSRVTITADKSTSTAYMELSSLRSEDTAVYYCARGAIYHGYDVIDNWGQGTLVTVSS VL: DIQMTQSPSSLSASVGDRVTITCRASQSISSYLNWYQQKPGKAPKLLIYATSNIQSGVPSRFSGSGSGTDFTLTISSLQPEDFATYYCQQYRRIPWTFGQGTKLEIKR was 8.25

Lab note: measured pKd of AB200-R1H32-R2Vk3 (Fab, V domains shown) VH: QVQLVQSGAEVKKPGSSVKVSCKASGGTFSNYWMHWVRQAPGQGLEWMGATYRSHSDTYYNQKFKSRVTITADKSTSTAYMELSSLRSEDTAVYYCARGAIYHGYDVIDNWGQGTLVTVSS VL: DIQMTQSPSSLSASVGDRVTITCRASQSISSYLNWYQQKPGKAPKLLIYATSNLQSGVPSRFSGSGSGTDFTLTISSLQPEDFATYYCQQFRKLPWSFGQGTKLEIKR was 8.36

The reported numbers originate from patent US20240327535A1.
